value-type: melting point

# compound, melting point
rows = [
    ("CC(C)(C)OC(=O)Cn1c(C(=O)c2ccccc2)ccc1-c1ccccc1", "85 to 87 °C"),
    ("CC(C)(C)OC(=O)Nc1cccc(OC2CCN(c3ccncc3)CC2)c1", "165 to 166 °C"),
    ("O=c1c(O)coc2ccccc12", "178 to 179 °C"),
]

// for each compound below, give its melting point
1. OC(CN1CCN(Cc2ccc(F)cc2)CC1)Cn1c2ccccc2c2cc(-c3ccccc3)ccc21 (stereo unspecified)
2. NC(=O)[C@H]1CCc2c(sc3nc(CN4C(=O)COC4=O)c(Cl)c(-c4ccc(O)cc4)c23)C1
3. FC(F)(F)c1n[nH]c2c1nc(-c1ccccc1)c1ccccc12
4. OCc1ccc(-c2ncn(-c3ccc(OC(F)(F)F)cc3)n2)cc1
5. CCN1C(=O)Cc2ccc(OC(=O)CCl)cc21
6. CC(O)(c1ccc(Oc2ccccc2)cc1)C1SCSCS1 (stereo unspecified)
7. Cc1oc2cc(O)ccc2c(=O)c1C#N

stdout:
1: 188 °C; 2: 317 to 318 °C; 3: 264 to 265 °C; 4: 112 to 114 °C; 5: 114 to 116 °C; 6: 70 to 71 °C; 7: > 300 °C

stdin: Return reported melting point; argument: Cc1ccc(COC(=O)C(=O)OCc2ccc(C)cc2)cc1
stdout: 100 °C

---

value-type: melting point

Some entries whose results are on file:
# compound, value-type, reading
rows = [
    ("CC(C)Oc1ccc([N+](=O)[O-])cc1C(F)(F)F", "melting point", "34 to 36 °C"),
    ("CCCNCC(=O)Nc1ccc2c(c1)C(=O)c1cc(NC(=O)CNCCC)ccc1C2=O", "melting point", "143 °C"),
    ("O=C(O)CCCNC(=O)c1cccc(NC(=O)c2ccccc2O)c1", "melting point", "172 to 174 °C"),
    ("CC12CC=C3c4ccc(O)cc4CCC3C1CCC2=O (stereo unspecified)", "melting point", "250 to 255 °C"),
    ("Nc1c2c(nc3cnccc13)CCCC2=O", "melting point", "237 to 242 °C"),
]

// for each compound below, give its melting point
1. COCC(=O)c1cccc(S(N)(=O)=O)c1
2. FC(F)(F)Oc1ccc(-n2cnc3ccc(-c4nnc(N5CCOCC5)o4)cc32)cc1

stdout:
1: 121 to 122 °C; 2: 202 to 203 °C

// for each compound below, give its melting point
1. O=C1Cn2cccc2Sc2ccc(Cl)cc21
2. COCc1c(C)c(C(C)(C)C)cc(C(C)(C)C)c1O
3. CC(C)(C)c1cccc(S(=O)(=O)n2c(CCCC(=O)O)cc3cc(C(F)(F)F)ccc32)c1
4. CC(C)(C)C(=O)OCc1cc2c(OCC3CO3)cccc2[nH]1 (stereo unspecified)

stdout:
106 to 107 °C
70 °C
135 to 141 °C
129 to 131 °C

---

value-type: melting point

# compound, reading
measured = [
    ("CNC(=O)c1ccccc1-c1cc(-c2ccccc2)no1", "119 to 121 °C"),
    ("CC1(C)CCC2(CC1)CC(=O)N(CCCn1c(=O)sc3ccc(Cl)cc31)C2=O", "159 to 160 °C"),
    ("COc1cc(COc2nn(-c3ccccc3)cc2C#N)ccc1OCc1nc(-c2ccco2)oc1C", "167 to 168 °C"),
]

// for each compound below, give its melting point
1. COc1cc(OC)nc(Oc2cccc3c2C(=O)OC3Oc2ccccc2)n1 (stereo not given)
2. COc1cc2cnc(O)nc2cc1OC
3. CCCNC(=O)c1cc2c(nc(C)n2C)c2c1CCC(c1ccccc1)O2 (stereo not given)
4. Cc1cccc(-c2nc(C(C)C)[nH]c2-c2cccc(-c3ccc(S(N)(=O)=O)cc3)c2)n1
5. CCCCCCCCCCCCCCCCCC(=O)Nc1cccc(N)c1
6. CC(=O)OCC1OC(OCCBr)C(OC(C)=O)C(OC(C)=O)C1OC(C)=O (stereo not given)
7. Cc1nc2cc3c(cc2[nH]1)NC(=O)C3(C)C

stdout:
1. 155 to 157 °C
2. 260 to 263 °C
3. 273 °C
4. 255 to 258 °C
5. 98 to 102 °C
6. 116 to 117 °C
7. > 300 °C
